Known z-score of a selection of compounds
- TEST SUMMARY: MM1S myeloma cell viability, profiling panel, resazurin fluorescence, basal, 24 h, PK04 Diversity Set (AID 1174);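 note: MM1S multiple myeloma cell line; test concentration not given here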
- CONDITION CONTEXT: higher = more signal, called active from +8 up or from −8 down

COMPOUND	z-score
COC(=O)CC=C[C@@H](C)[C@@H](C=NO[C@H](C)c1cn([C@H](CO)Cc2ccccc2)nn1)OC	-0.242
C[C@H]1CC[C@H]2C(=O)O[C@H](COc3ccc(C(C)(C)C)cc3)CN2[C@@H]1c1ccc(Br)cc1	0.422
CCOC(=O)[C@H](CC(C)C)NC(=O)CCC1CC(OC(=O)NCc2cccc3ccccc23)CC2(CCCC(COC(=O)NCC3CCCCC3)O2)O1 (some centres undefined)	1.27
COC(=O)CC=C[C@@H](C)[C@@H](C=NOC[C@H]1O[C@H](c2ccccc2)C=C[C@@H]1Oc1ccc(OC)cc1)NS(=O)(=O)c1ccc(C)cc1	-0.0907
